- Target Desc: N-terminal CRD of hGalectin-4 (Gal-4N) (Homo sapiens)
- Construct: N-terminal CRD of hGalectin-4 (amino acids 1–150, including an additional C-terminus His-Tag); His-Tag (C, cleaved yes); made in house; host or cells: E. coli BL21 (pET29b)
- Sequence (P56470 1-150): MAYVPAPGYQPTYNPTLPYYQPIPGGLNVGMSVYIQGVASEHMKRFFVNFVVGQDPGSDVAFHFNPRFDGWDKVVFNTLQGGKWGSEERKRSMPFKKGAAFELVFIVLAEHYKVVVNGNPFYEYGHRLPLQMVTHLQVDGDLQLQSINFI
- Assay Explanation: 1H Saturation Transfer Difference (STD) NMR epitope mapping
- Format: binding
- Study Conditions: 1H-residue MetFuc
For each record, write down the corresponding STD%.
One number for each entry, in %.

Consider the worked cases shown below.
- Compound: "CC(=O)NC1C(OC2C(O)C(CO)OC(OC3C(CO)OC(O)C(O)C3O)C2OC2OC(C)C(O)C(O)C2O)OC(CO)C(O)C1O (centres unmarked)"
  Target Desc: "N-terminal CRD of hGalectin-4 (Gal-4N) (Homo sapiens)"
  Readout Type: "STD%"
  Measured Result: 10
- Compound: "CC(=O)NC1C(O)OC(CO)C(OC2OC(CO)C(O)C(OC3OC(CO)C(O)C(O)C3O)C2OC2OC(C)C(O)C(O)C2O)C1O (centres unmarked)"
  Target Desc: "N-terminal CRD of hGalectin-4 (Gal-4N) (Homo sapiens)"
  Readout Type: "STD%"
  Measured Result: 16
- Compound: "CC(=O)NC1C(OC2C(O)C(O)OC(CO)C2O)OC(CO)C(O)C1OC1OC(CO)C(O)C(OC2OC(CO)C(O)C(O)C2O)C1OC1OC(C)C(O)C(O)C1O (centres unmarked)"
  Target Desc: "N-terminal CRD of hGalectin-4 (Gal-4N) (Homo sapiens)"
  Readout Type: "STD%"
  Measured Result: 10
- Compound: "CC1OC(OC2C(OC3C(CO)OC(O)C(O)C3O)OC(CO)C(O)C2OC2OC(CO)C(O)C(O)C2O)C(O)C(O)C1O (centres unmarked)"
  Target Desc: "N-terminal CRD of hGalectin-4 (Gal-4N) (Homo sapiens)"
  Readout Type: "STD%"
  Measured Result: 20

# input for lookup
IN: Output STD% of CC(=O)N[C@@H]1[C@@H](O[C@@H]2O[C@H](CO)[C@H](O)[C@H](O[C@H]3O[C@H](CO)[C@H](O)[C@H](O)[C@H]3O)[C@H]2O[C@@H]2O[C@@H](C)[C@@H](O)[C@@H](O)[C@@H]2O)[C@H](O)[C@@H](CO)O[C@H]1O
OUT: 14
